- measurement-target: Dual specificity tyrosine-phosphorylation-regulated kinase 1B (Homo sapiens);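 further: values are mean percent inhibition of DYRK1B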
- stated-conditions: at 0.1 µM
metric-name: inhibition (%)
Respond with the bare value in %.

Worked examples, 5 compounds total:
                            chemical_smiles  readout_number
0  COc1cc2ncn(-c3cc(O[C@H](C)c4ccccc4Cl)c(C(N)=O)s3)c2cc1OC           -0.01
1  COc1cc2ncn(-c3cc(OCc4ccccc4C(F)(F)F)c(C(N)=O)s3)c2cc1OC            -4.5
2  COc1cccc(-n2ncc3c(N/N=C/c4cccc(F)c4)ncnc32)c1           -1.44
3  O=C1NC(=O)C(c2ccc(Cl)cc2)=C1Nc1ccc(Cl)c(C(=O)O)c1            3.26
4  CS(=O)(=O)CCNCc1ccc(-c2ccc3ncnc(Nc4ccc(OCc5cccc(F)c5)c(C(F)(F)F)c4)c3c2)o1           -1.48

Tested system Dual specificity tyrosine-phosphorylation-regulated kinase 1B (Homo sapiens); inhibition recorded for CCn1c(-c2nonc2N)nc2c(N3CCCC3)nccc21 was 2.51

Tested system Dual specificity tyrosine-phosphorylation-regulated kinase 1B (Homo sapiens); inhibition recorded for CS(=O)(=O)Nc1ccc(N/C=C2\C(=O)Nc3ccccc32)cc1 was 3.56

Tested system Dual specificity tyrosine-phosphorylation-regulated kinase 1B (Homo sapiens); inhibition recorded for COc1ccc(-c2nn3ncccc3c2-c2ccnc(Nc3ccc(Cl)c(C(F)(F)F)c3)n2)cc1 was -1.42

====

- measurement-target: Tyrosine-protein kinase Srms (Homo sapiens);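 further: reported value is a mean of the inhibition readings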
- stated-conditions: at 0.1 µM
metric-name: inhibition
Phrase the answer as number then unit, nothing more needed.

>>> df
                                   molecule  result
0  Cc1ccc(C(=O)NC2CCCCC2)cc1-c1ccc(C(=O)NCC2CC2)cc1    2.6%
1  c1cnn2ncc(-c3ccnc(Nc4ccc5c(c4)OCCO5)n3)c2c1  -0.57%
2    O=C1NC(=O)C(c2ccccc2Cl)=C1Nc1cccc(O)c1  -0.89%
3  CC1=C(C(=O)Nc2ccc3[nH]ncc3c2)C(c2ccc(F)cc2)NC(=O)N1 (stereo not drawn)    0.2%
4  CCn1c(-c2nonc2N)nc2cncc(C(=O)N3CCNCC3)c21  -3.72%

Tested system Tyrosine-protein kinase Srms (Homo sapiens); inhibition recorded for CCc1cccc(NC(=O)Nc2ccc(Oc3ccc4nc(NC(=O)OC)[nH]c4c3)cc2)c1 was 0.61%

Tested system Tyrosine-protein kinase Srms (Homo sapiens); inhibition recorded for Fc1cccc(COc2ccc(Nc3ncnc4cc(-c5ccc[nH]5)sc34)cc2Cl)c1 was -0.83%

Tested system Tyrosine-protein kinase Srms (Homo sapiens); inhibition recorded for CCn1c(-c2nonc2N)nc2c(C#CC(C)(C)O)nc(CN3CCCC3)cc21 was -1.37%

Tested system Tyrosine-protein kinase Srms (Homo sapiens); inhibition recorded for O=C1NC(=O)C(c2cccc(Cl)c2)=C1Nc1ccc(O)c(Cl)c1 was -0.46%

Tested system Tyrosine-protein kinase Srms (Homo sapiens); inhibition recorded for CC(C)=Cc1cccc2c1/C(=N/Nc1ccc(S(N)(=O)=O)cc1)C(=O)N2 was 3.21%

Tested system Tyrosine-protein kinase Srms (Homo sapiens); inhibition recorded for CCN1CCC(CC(=O)Nc2n[nH]c3nc(-c4cccs4)c(Br)cc23)CC1 was -1.72%

Tested system Tyrosine-protein kinase Srms (Homo sapiens); inhibition recorded for NS(=O)(=O)c1cccc(-c2ccc3c(NC(=O)C4CC4)n[nH]c3c2)c1 was -0.76%

Tested system Tyrosine-protein kinase Srms (Homo sapiens); inhibition recorded for Cc1nnc(-c2ccc(C)c(-c3ccc(C(=O)Nc4cccc(C#N)c4)cc3)c2)o1 was -0.52%

====

Each entry below carries its reported inhibition.
- measurement-target: Ribosomal protein S6 kinase alpha-1 (Homo sapiens) (UniProt Q15418);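 further: values are mean percent inhibition of RSK1 measured in the GSK PKIS kinase inhibitor set screen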
- Sequence (Q15418 whole entry): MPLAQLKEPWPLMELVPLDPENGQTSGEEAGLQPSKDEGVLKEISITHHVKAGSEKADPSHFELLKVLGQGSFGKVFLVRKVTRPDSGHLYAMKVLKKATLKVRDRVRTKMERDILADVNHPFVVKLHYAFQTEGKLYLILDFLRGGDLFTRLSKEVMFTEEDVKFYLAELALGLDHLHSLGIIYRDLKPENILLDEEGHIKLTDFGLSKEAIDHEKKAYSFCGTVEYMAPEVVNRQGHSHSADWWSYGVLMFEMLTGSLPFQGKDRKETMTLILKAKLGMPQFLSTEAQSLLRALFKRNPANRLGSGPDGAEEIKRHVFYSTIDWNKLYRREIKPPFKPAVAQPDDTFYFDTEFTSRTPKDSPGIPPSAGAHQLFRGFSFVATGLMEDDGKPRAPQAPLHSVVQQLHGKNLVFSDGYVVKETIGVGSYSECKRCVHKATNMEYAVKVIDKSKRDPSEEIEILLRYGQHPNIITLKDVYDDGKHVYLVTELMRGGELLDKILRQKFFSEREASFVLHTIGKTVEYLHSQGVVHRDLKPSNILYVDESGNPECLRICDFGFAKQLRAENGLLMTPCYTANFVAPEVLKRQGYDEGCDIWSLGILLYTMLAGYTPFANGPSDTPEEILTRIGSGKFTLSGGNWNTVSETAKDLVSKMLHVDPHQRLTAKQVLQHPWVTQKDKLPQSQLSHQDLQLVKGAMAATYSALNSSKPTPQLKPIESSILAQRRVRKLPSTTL
- stated-conditions: at 0.1 µM
Respond with the bare value in %.

Worked examples, 2 compounds total:
In [3]: df
Out[3]:
                            chemical_smiles  readout_units  readout_number
0   COc1ccc(COc2ccc(Cc3cnc(N)nc3N)cc2OC)cc1              %            1.36
1  [O-][S+]1CCN(Cc2ccc(-c3ccc4ncnc(Nc5ccc(OCc6ccccc6)c(F)c5)c4c3)o2)CC1              %           -0.15

Tested system Ribosomal protein S6 kinase alpha-1 (Homo sapiens) (UniProt Q15418); inhibition recorded for CS(=O)(=O)CCNCc1ccc(-c2ccc3ncnc(Nc4ccc(OCc5ccccc5)c(Cl)c4)c3c2)o1 was 0.36

Tested system Ribosomal protein S6 kinase alpha-1 (Homo sapiens) (UniProt Q15418); inhibition recorded for CCN1CCC(CC(=O)Nc2n[nH]c3nc(-c4cccs4)c(Br)cc23)CC1 was -1.31

====

Each entry below carries its reported inhibition.
- measurement-target: Platelet-derived growth factor receptor alpha (Homo sapiens) (UniProt P16234);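 further: values are mean percent inhibition of PDGFRA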
- Sequence (P16234 whole entry): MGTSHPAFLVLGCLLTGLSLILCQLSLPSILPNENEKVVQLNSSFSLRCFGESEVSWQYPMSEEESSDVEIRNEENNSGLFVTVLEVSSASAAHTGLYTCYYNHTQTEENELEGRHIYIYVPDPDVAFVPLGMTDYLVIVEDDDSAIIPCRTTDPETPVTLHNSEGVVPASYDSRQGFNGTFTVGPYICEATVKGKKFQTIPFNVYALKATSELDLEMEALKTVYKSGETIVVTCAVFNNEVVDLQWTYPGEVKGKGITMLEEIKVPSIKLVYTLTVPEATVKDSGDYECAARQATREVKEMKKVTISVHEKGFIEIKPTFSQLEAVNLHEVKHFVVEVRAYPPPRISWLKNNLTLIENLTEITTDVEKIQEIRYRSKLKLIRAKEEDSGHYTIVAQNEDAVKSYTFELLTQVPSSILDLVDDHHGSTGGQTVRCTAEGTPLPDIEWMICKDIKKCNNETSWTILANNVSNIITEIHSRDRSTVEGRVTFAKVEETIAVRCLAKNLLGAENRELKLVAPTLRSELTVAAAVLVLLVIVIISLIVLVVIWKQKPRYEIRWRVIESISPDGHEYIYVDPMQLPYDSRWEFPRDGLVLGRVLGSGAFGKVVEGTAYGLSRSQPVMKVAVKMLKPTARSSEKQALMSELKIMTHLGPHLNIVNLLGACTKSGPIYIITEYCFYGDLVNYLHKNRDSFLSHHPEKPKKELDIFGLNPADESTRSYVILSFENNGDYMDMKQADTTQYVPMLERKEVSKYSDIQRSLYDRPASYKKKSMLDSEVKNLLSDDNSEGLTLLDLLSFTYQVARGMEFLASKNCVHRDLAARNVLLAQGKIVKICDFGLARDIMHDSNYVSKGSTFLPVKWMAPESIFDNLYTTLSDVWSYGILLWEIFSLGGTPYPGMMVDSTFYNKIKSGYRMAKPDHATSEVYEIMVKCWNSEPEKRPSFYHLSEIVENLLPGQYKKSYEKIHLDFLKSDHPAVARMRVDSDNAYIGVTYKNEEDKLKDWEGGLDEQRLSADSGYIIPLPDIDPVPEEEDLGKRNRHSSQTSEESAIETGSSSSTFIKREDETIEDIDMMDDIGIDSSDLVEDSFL
- stated-conditions: at 1 µM
Respond with the bare value in %.

Worked examples, 5 compounds total:
>>> print(df.to_string())
                                   compound                        measurement_target  readout_number
0  COC(=O)Nc1nc2cc(Oc3ccc(NC(=O)Nc4cccc(C(=O)O)c4)cc3)ccc2[nH]1  Platelet-derived growth factor receptor alpha (Homo sapiens) (UniProt P16234)            39.3
1  COC(=O)Nc1nc2cc(Oc3cccc(NC(=O)Nc4cc(C(F)(F)F)ccc4F)c3)ccc2[nH]1  Platelet-derived growth factor receptor alpha (Homo sapiens) (UniProt P16234)            80.2
2    N#Cc1c(NC(=O)c2cccc3ccccc23)sc2c1CCCC2  Platelet-derived growth factor receptor alpha (Homo sapiens) (UniProt P16234)            12.2
3  Cc1ccc(NC(=O)c2ccnc(N3CCCC3)c2)cc1-c1ccc(C(=O)NCC2CC2)cc1  Platelet-derived growth factor receptor alpha (Homo sapiens) (UniProt P16234)            20.7
4                CCn1c(-c2nonc2N)nc2ccncc21  Platelet-derived growth factor receptor alpha (Homo sapiens) (UniProt P16234)            7.48

Consider the additional compound presented here.
Cc1cc(O)cc(C)c1/C=C/c1cncc(-c2nn[nH]n2)c1 has a reported inhibition of 50.9

====

Each entry below carries its reported inhibition.
- measurement-target: Serine/threonine-protein kinase SIK2 (Homo sapiens);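 further: mean inhibition of SNF1LK2 (QIK) kinase activity, from the GSK PKIS screening panel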
- stated-conditions: at 1 µM
Phrase the answer as number then unit, nothing more needed.

Worked examples, 7 molecules total:
>>> print(df.to_string())
                            chemical_smiles  result
0  CN(C)c1cc2c(Nc3ccc4nc(Cc5ccccc5)[nH]c4c3)ncnc2cn1   7.99%
1  NCc1ccc(-c2nc(-c3ccc(Cl)c(O)c3)c(-c3ccncc3)[nH]2)cc1   8.19%
2  NS(=O)(=O)c1cccc(-c2ccc3c(NC(=O)C4CC4)n[nH]c3c2)c1  -7.23%
3  c1cnn2ncc(-c3ccnc(Nc4ccc5c(c4)OCCO5)n3)c2c1   17.7%
4  O=C1NC(=O)C(c2cccc(Cl)c2)=C1Nc1ccc(O)c(Cl)c1   19.8%
5  COC(=O)Nc1nc2cc(Oc3ccc(NC(=O)Nc4cccc(C(=O)O)c4)cc3)ccc2[nH]1   2.04%
6  CS(=O)(=O)Nc1ccc(N/C=C2\C(=O)Nc3ccccc32)cc1  -6.11%

Consider the additional molecule presented here.
CCn1c(-c2nonc2N)nc2cnc(Oc3cccc(NC(=O)c4ccc(OCCN5CCOCC5)cc4)c3)cc21 has a reported inhibition of 13.8%

====

- measurement-target: Serine/threonine-protein kinase TBK1 (Homo sapiens) (UniProt Q9UHD2);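 further: values are mean inhibition of TBK1, screened as part of the GSK published kinase inhibitor set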
- Sequence (Q9UHD2 whole entry): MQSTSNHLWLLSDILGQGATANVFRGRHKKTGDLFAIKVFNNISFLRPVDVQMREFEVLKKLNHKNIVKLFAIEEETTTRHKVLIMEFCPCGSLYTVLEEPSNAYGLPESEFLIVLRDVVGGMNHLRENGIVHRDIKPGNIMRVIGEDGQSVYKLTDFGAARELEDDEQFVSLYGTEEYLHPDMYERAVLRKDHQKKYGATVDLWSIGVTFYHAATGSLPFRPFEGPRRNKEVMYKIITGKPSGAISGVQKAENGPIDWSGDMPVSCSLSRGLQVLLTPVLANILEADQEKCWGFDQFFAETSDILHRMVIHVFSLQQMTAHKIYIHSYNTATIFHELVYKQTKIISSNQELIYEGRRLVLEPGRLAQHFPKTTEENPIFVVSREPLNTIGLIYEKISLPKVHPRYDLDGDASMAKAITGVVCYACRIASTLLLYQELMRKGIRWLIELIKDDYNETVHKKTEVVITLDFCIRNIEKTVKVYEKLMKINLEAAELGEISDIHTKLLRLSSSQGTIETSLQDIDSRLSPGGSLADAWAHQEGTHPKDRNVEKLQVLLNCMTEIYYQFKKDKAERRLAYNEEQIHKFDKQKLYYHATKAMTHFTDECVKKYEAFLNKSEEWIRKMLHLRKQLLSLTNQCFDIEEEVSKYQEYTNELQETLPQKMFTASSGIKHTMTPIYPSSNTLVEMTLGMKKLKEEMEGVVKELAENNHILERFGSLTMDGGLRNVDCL
- stated-conditions: at 1 µM
metric-name: inhibition (%)
Respond with the bare value in %.

>>> print(df.to_string())
                                   compound  readout_number
0  NCc1ccc(-c2nc(-c3ccc(Cl)c(O)c3)c(-c3ccncc3)[nH]2)cc1            1.76
1  CC1=C(C(=O)Nc2ccc3[nH]ncc3c2)C(c2ccc3ccccc3c2)CC(=O)N1 (stereo not drawn)            4.09

Tested system Serine/threonine-protein kinase TBK1 (Homo sapiens) (UniProt Q9UHD2); inhibition recorded for COc1ccc(-c2coc3ncnc(N)c23)cc1 was 7.65

Tested system Serine/threonine-protein kinase TBK1 (Homo sapiens) (UniProt Q9UHD2); inhibition recorded for CCn1c(-c2nonc2N)nc2ccncc21 was 1.82

Tested system Serine/threonine-protein kinase TBK1 (Homo sapiens) (UniProt Q9UHD2); inhibition recorded for CC(C)=Cc1cccc2c1/C(=N/Nc1ccc(S(N)(=O)=O)cc1)C(=O)N2 was 26.3

Tested system Serine/threonine-protein kinase TBK1 (Homo sapiens) (UniProt Q9UHD2); inhibition recorded for CCCN1CCC=C(c2ccc(Nc3nc(Nc4ccccc4C(N)=O)c4cc[nH]c4n3)c(C)c2)C1 was 9.03

Tested system Serine/threonine-protein kinase TBK1 (Homo sapiens) (UniProt Q9UHD2); inhibition recorded for CC1=C(C(=O)Nc2ccc3[nH]ncc3c2)C(c2ccc(Cl)c(Cl)c2)CC(=O)N1 (stereo not drawn) was 0.46

Data origin, for the record: ChEMBL document CHEMBL1961873
